All values here come from ChEMBL document CHEMBL1158610.

Biological target: Corticotropin-releasing factor receptor 1 (Rattus norvegicus)
Sequence (P35353 whole entry): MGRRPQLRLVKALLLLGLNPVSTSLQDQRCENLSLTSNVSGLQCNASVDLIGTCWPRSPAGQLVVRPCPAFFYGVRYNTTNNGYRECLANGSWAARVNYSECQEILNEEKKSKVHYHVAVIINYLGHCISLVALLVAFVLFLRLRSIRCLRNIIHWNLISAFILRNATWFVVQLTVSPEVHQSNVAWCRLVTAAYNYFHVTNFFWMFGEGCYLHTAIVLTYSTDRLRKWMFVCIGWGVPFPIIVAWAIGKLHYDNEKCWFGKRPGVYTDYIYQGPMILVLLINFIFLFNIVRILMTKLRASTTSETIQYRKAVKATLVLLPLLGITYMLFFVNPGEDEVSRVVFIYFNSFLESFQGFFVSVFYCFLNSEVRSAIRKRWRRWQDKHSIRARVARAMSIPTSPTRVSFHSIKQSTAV
metric: IC50 (nM)

1) COc1cc(Cl)c(Nc2nc(C)nn([C@@H](C)C3CC3)c2=O)c(Cl)c1 ... 7.5
2) CCC(C1CC1)n1nc(C)nc(Nc2cc(C)c(OC)cc2C)c1=O (stereo unspecified) ... 0.89
3) Cc1nc(Nc2cc(Cl)c(C#N)cc2Cl)c(=O)n(C(C)C2CC2)n1 (stereo unspecified) ... 270
4) COC[C@H](C1CC1)n1nc(C)nc(Nc2cc(C)c(OC(F)F)nc2C)c1=O ... 6.5
5) CCC(C1CC1)n1nc(C)nc(Nc2cc(C)c(OC)nc2C(F)(F)F)c1=O (stereo unspecified) ... 2.7
6) Cc1nc(Nc2cc(C(F)(F)F)c(C#N)cc2Cl)c(=O)n(C(C)C2CC2)n1 (stereo unspecified) ... 3300
7) CCC(C1CC1)n1nc(C)nc(Nc2c(Cl)cc(C(F)(F)F)cc2Cl)c1=O (stereo unspecified) ... 6.3
8) CCOc1ccc(Nc2nc(C)nn([C@H](COC)C3CC3)c2=O)c(C(F)(F)F)n1 ... 27
9) Cc1nc(Nc2c(Cl)cc(C(F)(F)F)nc2Cl)c(=O)n(C(C)C2CC2)n1 (stereo unspecified) ... 260
10) CCC(C1CC1)n1nc(C)nc(Nc2c(Cl)cc(OC(F)F)cc2Cl)c1=O (stereo unspecified) ... 2.1

A = COc1nc(C)c(Nc2nc(C)nn(C(C)C3CC3)c2=O)c(OC)n1 (stereo unspecified)
B = COC[C@@H](C1CC1)n1nc(C)nc(Nc2c(Cl)cc(OC(F)F)cc2Cl)c1=O
C = CCOc1ccc(Nc2nc(C)nn([C@H](C)C3CC3)c2=O)c(C(F)(F)F)n1
D = COCC(C1CC1)n1nc(C)nc(Nc2ccc(OC)nc2C(F)(F)F)c1=O (stereo unspecified)
E = COCC(C1CC1)n1nc(C)nc(Nc2cc(C)c(OC(F)F)nc2C)c1=O (stereo unspecified)
Sort entries by IC50 from minimum to maximum value. Sort the labels as requested; that list is your answer.
E, D, C, B, A
(E: 1.1 nM, D: 3.7 nM, C: 8.6 nM, B: 23 nM, A: 1100 nM)
